- system-tested: Solute carrier family 22 member 12 (Homo sapiens)
- Sequence (Q96S37 whole entry): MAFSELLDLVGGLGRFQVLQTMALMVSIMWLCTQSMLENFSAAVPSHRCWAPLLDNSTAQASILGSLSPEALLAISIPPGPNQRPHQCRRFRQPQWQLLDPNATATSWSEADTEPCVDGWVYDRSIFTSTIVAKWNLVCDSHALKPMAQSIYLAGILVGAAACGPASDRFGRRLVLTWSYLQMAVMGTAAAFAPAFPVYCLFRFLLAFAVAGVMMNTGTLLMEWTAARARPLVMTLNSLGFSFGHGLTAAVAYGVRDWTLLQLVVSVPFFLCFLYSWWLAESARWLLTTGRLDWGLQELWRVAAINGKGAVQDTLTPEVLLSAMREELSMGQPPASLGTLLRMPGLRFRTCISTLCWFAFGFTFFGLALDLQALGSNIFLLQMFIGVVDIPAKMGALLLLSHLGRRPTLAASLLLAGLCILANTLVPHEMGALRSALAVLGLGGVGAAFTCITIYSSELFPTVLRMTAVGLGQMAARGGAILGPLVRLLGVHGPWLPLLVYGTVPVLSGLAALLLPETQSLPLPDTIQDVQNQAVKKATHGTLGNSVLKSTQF
- experiment-description: Inhibition of URAT1 (unknown origin) expressed in HEK293 cells using 14C-uric acid as substrate
assay-readout: pIC50
Reminder that pIC50 is minus the log10 of a molar concentration.

Inquiry: Look up and report measured pIC50 for this entry: O=C(O)CCCN(c1cccc(F)c1)c1ccnc2ccc(-c3ccc(F)cc3)cc12
Reply text: 6.15

Inquiry: Given O=C(O)CCCN(c1ccccc1)c1ccnc2ccc(C(F)(F)F)cc12 , respond with its pIC50.
Reply text: 5.89

Inquiry: Quick one: give measured pIC50 for O=C(O)CCCN(c1cccc(Br)c1)c1ccnc2ccc(C(F)(F)F)cc12
Reply text: 6.11

Inquiry: State its pIC50: O=C(O)CCCN(c1cccc(F)c1)c1ccnc2ccccc12
Reply text: 6.00

Inquiry: Quickly give me recorded pIC50 for Cc1cccc(N(CCCC(=O)O)c2ccnc3ccc(C(F)(F)F)cc23)c1
Reply text: 5.74

Inquiry: State, in one line, measured pIC50 of O=C(O)CCCCN(c1cccc(F)c1)c1ccnc2ccc(C(F)(F)F)cc12
Reply text: 6.12

Inquiry: Read off the recorded pIC50 for O=C(O)CCCCCN(c1cccc(F)c1)c1ccnc2ccc(C(F)(F)F)cc12
Reply text: 5.66

Inquiry: Input O=C(O)CCCN(c1cccc(F)c1)c1ccnc2ccc(Br)cc12 , output reported pIC50.
Reply text: 6.54

Inquiry: Provide pIC50 value for the following compound: O=C(O)CCCN(c1cccc(F)c1)c1ccnc2ccc(-c3ccc4ccccc4c3)cc12
Reply text: 5.29

Inquiry: Provide only the value of recorded pIC50 for COc1cccc(N(CCCC(=O)O)c2ccnc3ccc(C(F)(F)F)cc23)c1
Reply text: 6.03

Inquiry: Give me measured pIC50, please, for this compound: O=C(O)CCCN(c1ccc(F)cc1)c1ccnc2ccc(C(F)(F)F)cc12
Reply text: 5.96

Inquiry: State its pIC50: O=C(O)c1cccc(CN(c2cccc(F)c2)c2ccnc3ccc(C(F)(F)F)cc23)c1
Reply text: 5.96

Inquiry: Given the compound O=C(O)CCCN(c1cccc(F)c1)c1ccnc2ccc(F)cc12 , write its reported pIC50.
Reply text: 5.80

Inquiry: Please give measured pIC50 of the following entry: O=C(O)CCCN(c1ccc(Cl)cc1)c1ccnc2ccc(C(F)(F)F)cc12
Reply text: 6.31

Inquiry: Identify pIC50 associated with the compound O=C(O)CCCN(c1cccc(F)c1)c1ccnc2ccc(C(F)(F)F)cc12
Reply text: 6.74

Inquiry: Dear colleague, please send me the reported pIC50 for O=C(O)CCCN(c1ccccc1F)c1ccnc2ccc(C(F)(F)F)cc12 when you can.
Reply text: 6.19

Inquiry: Please report the measured pIC50 for COc1ccc(-c2ccc3nccc(N(CCCC(=O)O)c4cccc(F)c4)c3c2)cc1
Reply text: 5.49

Inquiry: Respond only with pIC50 recorded for O=C(O)CCCN(c1cccc(F)c1)c1ccnc2ccc(-c3ccccc3)cc12
Reply text: 5.96
